Each entry below carries its reported R, ratio of the ELISA score with target present to the ELISA score without target.
Target: factor VIII target (Homo sapiens)
Construct: amino acids 1-743 and 1638 through 2332 of human factor VIII; purchased Genetics Institute, Inc. (Cambridge, Mass.)
Sequence (P00451 20-762): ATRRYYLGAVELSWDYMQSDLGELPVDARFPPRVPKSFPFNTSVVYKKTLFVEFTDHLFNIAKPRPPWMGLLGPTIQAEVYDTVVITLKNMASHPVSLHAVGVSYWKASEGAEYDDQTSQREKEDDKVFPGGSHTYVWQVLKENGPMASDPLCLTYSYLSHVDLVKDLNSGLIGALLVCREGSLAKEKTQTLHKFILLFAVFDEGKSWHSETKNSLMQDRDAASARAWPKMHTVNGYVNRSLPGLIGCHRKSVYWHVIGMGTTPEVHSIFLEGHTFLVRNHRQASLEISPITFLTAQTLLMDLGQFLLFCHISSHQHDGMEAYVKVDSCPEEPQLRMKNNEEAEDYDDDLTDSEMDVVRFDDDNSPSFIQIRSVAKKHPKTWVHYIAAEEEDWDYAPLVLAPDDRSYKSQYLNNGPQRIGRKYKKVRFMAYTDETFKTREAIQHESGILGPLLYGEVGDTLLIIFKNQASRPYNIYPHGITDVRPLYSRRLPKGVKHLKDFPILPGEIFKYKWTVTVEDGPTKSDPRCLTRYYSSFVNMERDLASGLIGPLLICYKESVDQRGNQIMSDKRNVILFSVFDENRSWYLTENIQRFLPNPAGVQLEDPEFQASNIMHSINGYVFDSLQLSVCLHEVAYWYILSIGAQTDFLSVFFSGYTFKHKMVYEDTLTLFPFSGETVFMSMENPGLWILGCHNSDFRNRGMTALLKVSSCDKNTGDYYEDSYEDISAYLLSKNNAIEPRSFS
Sequence (P00451 1657-2351): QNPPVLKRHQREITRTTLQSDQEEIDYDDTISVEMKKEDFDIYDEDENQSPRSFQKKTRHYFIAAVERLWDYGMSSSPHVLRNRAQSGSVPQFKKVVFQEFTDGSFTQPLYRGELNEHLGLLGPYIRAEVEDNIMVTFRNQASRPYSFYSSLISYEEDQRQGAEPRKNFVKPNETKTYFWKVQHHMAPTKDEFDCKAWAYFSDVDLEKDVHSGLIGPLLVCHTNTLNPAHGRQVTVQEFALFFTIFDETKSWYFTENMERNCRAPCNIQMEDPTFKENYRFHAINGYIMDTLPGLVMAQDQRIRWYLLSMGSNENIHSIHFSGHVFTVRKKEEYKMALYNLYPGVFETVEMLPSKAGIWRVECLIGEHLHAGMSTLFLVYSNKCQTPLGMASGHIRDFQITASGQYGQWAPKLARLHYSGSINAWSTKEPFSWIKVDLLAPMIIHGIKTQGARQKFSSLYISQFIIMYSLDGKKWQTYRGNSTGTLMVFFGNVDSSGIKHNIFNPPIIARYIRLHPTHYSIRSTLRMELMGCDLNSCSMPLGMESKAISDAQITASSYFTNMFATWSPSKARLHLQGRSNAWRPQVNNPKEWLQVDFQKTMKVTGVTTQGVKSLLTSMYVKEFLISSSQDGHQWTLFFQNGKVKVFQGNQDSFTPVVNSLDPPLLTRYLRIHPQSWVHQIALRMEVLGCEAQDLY
Assay: Phage ELISA of high scoring isolates from rounds 2 and 3, with versus without target
Type: binding
Conditions: phage isolates from rounds 2 and 3
Method: During analysis of the specific polypeptides of the invention, three libraries were isolated and screened. […] These libraries were designated TN7/1, TN8/6 anf TN9/1. In addition, important consensus sequences were determined. Three rounds of screenings were carried out for each library. […] Bound phage were detected with HRP conjugated anti-M13 polyclonal antibody (Pharmacia). […] The color is quantitated by absorbance at OD630. […]
No end group written: not given here.
I'd appreciate a reply containing only the number, no unit.

Example cases with answers are listed next.
• FCWVFPFNHCS (cysteine pairing not given here) [TN9 isolate 12] = 18
• FCWVFPFNHCD (cysteine pairing not given here) [TN9 isolate 02] = 8
• FGCSWLFPCPF (cysteine pairing not given here) [TN7 isolate A08] = 8

Lookup: Which R, ratio of the ELISA score with target present to the ELISA score without target is reported for this sequence? RLCSWISPCSA (cysteine pairing not given here) [TN7 isolate D04]
Found: 6

Lookup: Which R, ratio of the ELISA score with target present to the ELISA score without target is reported for this sequence? FCWVFAFDHCH (Selected Phage Display Sequence)
Found: 24

Lookup: Which R, ratio of the ELISA score with target present to the ELISA score without target is reported for this sequence? HSCGSWLFPCFA (cysteine pairing not given here) [TN7 isolate A06]
Found: 10

Lookup: Which R, ratio of the ELISA score with target present to the ELISA score without target is reported for this sequence? HACGSWFRPCHA (cysteine pairing not given here) [TN8 isolate 07]
Found: 6

Lookup: Which R, ratio of the ELISA score with target present to the ELISA score without target is reported for this sequence? FCWVFNWVHCD (Selected Phage Display Sequence)
Found: 14

Lookup: Which R, ratio of the ELISA score with target present to the ELISA score without target is reported for this sequence? FCWVFNFSHCS (cysteine pairing not given here) [TN9 isolate 03]
Found: 24
